assay: HoxA9-arrested leukemia cell differentiation promoters – flow cytometry, MLPCN library, primary screen (AID 624256); conditions: ER-HoxA9 myeloid progenitors, lysozyme-GFP differentiation, at 10 µM; measured here: differentiation confirmed by MAC1 staining, stronger effect = higher value;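 also: cells exposed to compound for four days before flow analysis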
In all, about 360,000 compounds went through this assay and about 3,700 (1%) were called active. Inconclusive results (about 2%) are left out. The sample as a whole holds a higher share of actives than the screen did.
Class MET: GFP+ MAC1+ double positive at least 1%. Class NOT MET: GFP+ MAC1+ double positive below 1%.

Data request: Decide: is the reported value of GFP+ MAC1+ double positive for `Cc1ccccc1-c1nc(NC(C)C)nc2cc(-c3ccccc3)sc12` equal to or greater than 1%?
Data returned: NOT MET

Data request: Decide: is the reported value of GFP+ MAC1+ double positive for `COc1ccc(NC(=O)/C(C#N)=C\c2cc(OC)c(OCc3ccc(C(=O)O)cc3)cc2Br)cc1` equal to or greater than 1%?
Data returned: NOT MET

Data request: Decide: is the reported value of GFP+ MAC1+ double positive for `CCN(CC)S(=O)(=O)c1ccc(N2CCOCC2)c(NC(=O)c2ccc(=O)n(C)n2)c1` equal to or greater than 1%?
Data returned: NOT MET

Data request: Decide: is the reported value of GFP+ MAC1+ double positive for `CC(=O)C1=C(C)NC(C)=C(C(C)=O)C1c1cn(-c2ccccc2)nc1-c1cccs1` equal to or greater than 1%?
Data returned: NOT MET

Data request: Decide: is the reported value of GFP+ MAC1+ double positive for CCN1CCCC1CNC(=O)c1cc2c(=O)n(C)c3ccccc3c2n1C (configuration not stated) equal to or greater than 1%?
Data returned: NOT MET

Data request: Decide: is the reported value of GFP+ MAC1+ double positive for `Cc1ccc(C)c(S(=O)(=O)N2CCN(C(=O)Nc3ccccc3)CC2)c1` equal to or greater than 1%?
Data returned: NOT MET

Data request: Decide: is the reported value of GFP+ MAC1+ double positive for `Cc1nc2cc(NC(=O)Nc3cccc(F)c3)ccc2n1C` equal to or greater than 1%?
Data returned: NOT MET

Data request: Decide: is the reported value of GFP+ MAC1+ double positive for Cc1ccc(NC(=O)c2ccc(S(=O)(=O)NCC3CCCO3)cc2)cc1C (configuration not stated) equal to or greater than 1%?
Data returned: NOT MET

Data request: Decide: is the reported value of GFP+ MAC1+ double positive for `O=S(=O)(Nc1cc(Cl)ccc1N1CCOCC1)c1ccccc1Cl` equal to or greater than 1%?
Data returned: NOT MET

Data request: Decide: is the reported value of GFP+ MAC1+ double positive for `Nc1nc2c(Br)ccc(Br)c2cc1C(=O)NCCc1ccccc1` equal to or greater than 1%?
Data returned: NOT MET

Data request: Decide: is the reported value of GFP+ MAC1+ double positive for O=C1NC(O)CCN1C1CC(O)C(CO)O1 (configuration not stated) equal to or greater than 1%?
Data returned: MET

Data request: Decide: is the reported value of GFP+ MAC1+ double positive for `CC(=O)Nc1cccc(-c2cc(NC=O)c3ncc(-c4ccc(F)c(Cl)c4)n3c2)c1` equal to or greater than 1%?
Data returned: MET

Data request: Decide: is the reported value of GFP+ MAC1+ double positive for `CO[C@@H]1CN(C)C(=O)c2cc(NC(=O)Nc3cc(F)ccc3F)ccc2OC[C@H](C)N(C(=O)c2ccccn2)C[C@@H]1C` equal to or greater than 1%?
Data returned: MET

Data request: Decide: is the reported value of GFP+ MAC1+ double positive for `COC(=O)c1ccc2nc(C3CCCCC3)c(Cc3cccc(F)c3)n2c1` equal to or greater than 1%?
Data returned: NOT MET

Data request: Decide: is the reported value of GFP+ MAC1+ double positive for `CN(C)c1cccc(NC(=O)c2ccc(-c3ccc(F)c(F)c3)c3ccoc23)c1` equal to or greater than 1%?
Data returned: MET

Data request: Decide: is the reported value of GFP+ MAC1+ double positive for CCOC(=O)C(C(=O)OCC)C(C#N)c1ccccc1 (configuration not stated) equal to or greater than 1%?
Data returned: MET

Data request: Decide: is the reported value of GFP+ MAC1+ double positive for `CCN(Cc1cc2cc(C)ccc2[nH]c1=O)S(=O)(=O)c1ccccc1` equal to or greater than 1%?
Data returned: NOT MET

Data request: Decide: is the reported value of GFP+ MAC1+ double positive for `COC(=O)[C@]12CCCCC=C1N(Cc1cccc3ccccc13)C(=O)[C@H](CC(=O)N1CCOCC1)C2` equal to or greater than 1%?
Data returned: NOT MET

Data request: Decide: is the reported value of GFP+ MAC1+ double positive for O=C(NCc1ccc(F)cc1)c1cc(C2CCCCN2C(=O)C2CCCCC2)on1 (configuration not stated) equal to or greater than 1%?
Data returned: MET

Data request: Decide: is the reported value of GFP+ MAC1+ double positive for `Cc1ccc2cc(CN(c3ccc(C)c(C)c3)S(C)(=O)=O)c(=O)[nH]c2c1` equal to or greater than 1%?
Data returned: NOT MET

Data request: Decide: is the reported value of GFP+ MAC1+ double positive for CCOC(=O)C(C(=O)c1ccccc1)C(c1ccccc1)c1nccc2ccccc12 (configuration not stated) equal to or greater than 1%?
Data returned: NOT MET

Data request: Decide: is the reported value of GFP+ MAC1+ double positive for O=C(NCc1ccccc1)C(c1ccc(F)cc1)N1CCN(C(=O)C2CCCO2)CC1 (configuration not stated) equal to or greater than 1%?
Data returned: NOT MET

Data request: Decide: is the reported value of GFP+ MAC1+ double positive for `CCOC(=O)c1c(-c2ccccc2)oc2ccc(OCC(=O)NN)cc12` equal to or greater than 1%?
Data returned: MET

Data request: Decide: is the reported value of GFP+ MAC1+ double positive for `CCCN(CCC)c1nc2c(C)cccn2c(=O)c1/C=C1/SC(=S)N(Cc2ccco2)C1=O` equal to or greater than 1%?
Data returned: MET

Data request: Decide: is the reported value of GFP+ MAC1+ double positive for `Cc1nc2c(OCC(=O)C(C)(C)C)cccn2c1N(C)Cc1cccs1` equal to or greater than 1%?
Data returned: MET

Data request: Decide: is the reported value of GFP+ MAC1+ double positive for CC1(C(=O)NCc2ccccc2)CSCC(=O)N1CCCN1CCOCC1 (configuration not stated) equal to or greater than 1%?
Data returned: MET

Data request: Decide: is the reported value of GFP+ MAC1+ double positive for `CCOC(=O)c1c(-c2ccccc2)oc2cc(Br)c(O)c(C=O)c12` equal to or greater than 1%?
Data returned: NOT MET

Data request: Decide: is the reported value of GFP+ MAC1+ double positive for `CC(C)C[C@H]1CNC(=O)C(=O)N1C[C@H]1CCCN1C[C@H](Cc1ccc(O)cc1)N1C[C@H](CC(C)C)N(CC2CCCCCC2)C(=O)C1=O` equal to or greater than 1%?
Data returned: MET

Data request: Decide: is the reported value of GFP+ MAC1+ double positive for `Nc1ccc(C(=O)Nc2ccccc2N)cc1` equal to or greater than 1%?
Data returned: MET

Data request: Decide: is the reported value of GFP+ MAC1+ double positive for `S=c1[nH]nc(-c2cccs2)n1/N=C/c1cn(-c2ccccc2)nc1-c1ccc(Cl)cc1` equal to or greater than 1%?
Data returned: NOT MET

Data request: Decide: is the reported value of GFP+ MAC1+ double positive for COc1ccc(C(C(=O)NCc2ccccc2)n2c(=O)c(-c3ccccc3)nc3ccccc32)cc1 (configuration not stated) equal to or greater than 1%?
Data returned: MET

Data request: Decide: is the reported value of GFP+ MAC1+ double positive for `COc1ccc(N(Cc2cc3ccc(C)cc3[nH]c2=O)S(=O)(=O)c2ccccc2)cc1` equal to or greater than 1%?
Data returned: MET

Data request: Decide: is the reported value of GFP+ MAC1+ double positive for CC(C)(C)CC(=O)Nc1nc(C(N)Cc2ccc(C(F)(F)F)cc2)cs1 (configuration not stated) equal to or greater than 1%?
Data returned: NOT MET

Data request: Decide: is the reported value of GFP+ MAC1+ double positive for NC(c1csc(NC(=O)Nc2cccc(C(F)(F)F)c2)n1)C1CCCCC1 (configuration not stated) equal to or greater than 1%?
Data returned: MET

Data request: Decide: is the reported value of GFP+ MAC1+ double positive for `CCCc1c(-c2ccccc2F)ncn1Cc1ccccc1OC` equal to or greater than 1%?
Data returned: MET

Data request: Decide: is the reported value of GFP+ MAC1+ double positive for `Nc1nc2cc(Cl)ccc2n1N` equal to or greater than 1%?
Data returned: MET

Data request: Decide: is the reported value of GFP+ MAC1+ double positive for `Cc1cccn2c(=O)c(C=O)c(Nc3ccc(S(N)(=O)=O)cc3)nc12` equal to or greater than 1%?
Data returned: NOT MET

Data request: Decide: is the reported value of GFP+ MAC1+ double positive for `NCCCNC(=S)NCCCN(Cc1ccc(Cl)cc1)c1ccc(Br)cn1` equal to or greater than 1%?
Data returned: NOT MET

Data request: Decide: is the reported value of GFP+ MAC1+ double positive for Cc1ccc(CN2CC(N3CCC(Cc4ccccc4)CC3)CS2(=O)=O)cc1 (configuration not stated) equal to or greater than 1%?
Data returned: MET

Data request: Decide: is the reported value of GFP+ MAC1+ double positive for `Nc1ccc(S(=O)(=O)NC(=O)c2ccccc2)cc1` equal to or greater than 1%?
Data returned: NOT MET

Data request: Decide: is the reported value of GFP+ MAC1+ double positive for `O=C(O)c1ccc(N/N=C/c2cn(-c3ccccc3)nc2-c2cccs2)cc1` equal to or greater than 1%?
Data returned: NOT MET
